Taken from patent US20260317314A1.

TEST_DESCRIPTION: In vivo pharmacokinetics study in rats
Design: species or system SD rat
TEST_CONTEXT: rat; male SD rats, oral 2 mg/kg, plasma; read-out: AUC0-24 h
QUANTITY_MEASURED: AUC(0-t) at 24 h (µM·h)

(I) CCC(=O)N[C@@H]1CCCc2c(-c3ccc4c(ccc(=O)n4C)c3)cncc21 (single isomer, unassigned)
(II) CCC(=O)NC1CCOc2c(-c3cc4c(s3)N(C)C(=O)CC4)cncc21 (single isomer, unassigned)
(III) CCC(=NOC)NC1CCCc2c(-c3ccc4c(c3)CCC(=O)N4C)cncc21 (single isomer, unassigned)
Order these compounds (above) by their AUC(0-t) at 24 h, from the smallest value upward. Dear reader, please state the labels in the requested order.
III, II, I

* * *

TEST_DESCRIPTION: Plasma protein binding rate test, cynomolgus monkey (equilibrium dialysis)
Assay type: in vitro ADME
TEST_CONTEXT: 37° C., read-out: Plasma protein binding rate (%) in cynomolgus monkeys (converted)
QUANTITY_MEASURED: fraction unbound at 4 h

(P) CCC(=O)NC1CCCc2c(-c3cc4c(cc3F)N(C)C(=O)CO4)cncc21 (single isomer, unassigned)
(Q) CCC(=O)NC1CCOc2c(-c3cc4c(s3)N(C)C(=O)CC4)cncc21 (single isomer, unassigned)
Hi there, can you help? I need to know whether P or Q has lower measured fraction unbound at 4 h. Write the label of whichever entry you select.
P

(P) CCC(=O)N[C@@H]1CCCc2c(-c3ccc4c(ccc(=O)n4C)c3)cncc21 (single isomer, unassigned)
(Q) CCC(=O)N[C@H]1CCOc2c(-c3ccc4c(c3)CCC(=O)N4C)cncc21 (single isomer, unassigned)
(R) CCC(=NOC)NC1CCCc2c(-c3ccc4c(c3)CCC(=O)N4C)cncc21 (single isomer, unassigned)
// smallest fraction unbound at 4 h at index 0, largest at the end Labels, ranked as asked.
R, P, Q

* * *

TEST_DESCRIPTION: In vivo pharmacokinetics study in rats
Parameters: species or system SD rat
TEST_CONTEXT: rat, plasma; male SD rats, oral 2 mg/kg
QUANTITY_MEASURED: bioavailability (%)

{"MOLECULE": "CCC(=O)NC1CCOc2c(-c3cc4c(s3)N(C)C(=O)CC4)cncc21 (single isomer, unassigned) [Compound 046]", "QUANTITY_MEASURED": "bioavailability", "RESULT_VALUE": 71}

(a) CCC(=O)N[C@@H]1CCCc2c(-c3ccc4c(ccc(=O)n4C)c3)cncc21 (single isomer, unassigned) [Compound 001]
(b) CCC(=O)N[C@H]1CCOc2c(-c3ccc4c(c3)CCC(=O)N4C)cncc21 (single isomer, unassigned) [Compound 037]
So which one has the bigger bioavailability here, a or b ? Please reply using the label of the selected record.
b

* * *

# IC50 per entry for CYP3A4 (Homo sapiens)

{"COMPOUND": "CCC(=O)NC1CCOc2c(-c3cc4c(s3)N(C)C(=O)CC4)cncc21 (single isomer, unassigned)", "STUDY_TARGET": "CYP3A4 (Homo sapiens)", "IC50": "> 50 µM"}

# evaluate next
Provide value of IC50 for this record tested with CYP3A4 (Homo sapiens): CCC(=O)N[C@H]1CCOc2c(-c3ccc4c(c3)CCC(=O)N4C)cncc21 (single isomer, unassigned)
Sequence (P08684 whole entry): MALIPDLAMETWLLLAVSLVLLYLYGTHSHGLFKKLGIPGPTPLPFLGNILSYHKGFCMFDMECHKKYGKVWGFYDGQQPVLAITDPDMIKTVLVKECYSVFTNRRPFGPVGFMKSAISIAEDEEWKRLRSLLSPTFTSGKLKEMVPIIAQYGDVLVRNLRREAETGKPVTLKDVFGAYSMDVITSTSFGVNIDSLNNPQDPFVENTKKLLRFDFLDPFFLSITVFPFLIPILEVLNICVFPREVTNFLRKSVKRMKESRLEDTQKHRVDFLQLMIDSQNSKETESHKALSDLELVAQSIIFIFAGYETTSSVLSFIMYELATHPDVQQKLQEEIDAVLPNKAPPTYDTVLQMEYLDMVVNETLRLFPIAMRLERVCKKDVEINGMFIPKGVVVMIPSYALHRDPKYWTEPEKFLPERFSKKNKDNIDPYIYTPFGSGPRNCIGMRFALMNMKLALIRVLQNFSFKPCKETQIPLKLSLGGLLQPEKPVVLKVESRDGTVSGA
> 50 µM

* * *

TEST_DESCRIPTION: In vivo pharmacokinetic study in cynomolgus monkeys
Parameters: species or system cynomolgus monkey
TEST_CONTEXT: cynomolgus monkey, plasma; male cynomolgus monkeys, oral 1 mg/kg
QUANTITY_MEASURED: half-life (h)
Your answer is read as h, so omit the unit and give the number.

Recorded half-life for CCC(=O)N[C@H]1CCOc2c(-c3ccc4c(c3)CCC(=O)N4C)cncc21 (single isomer, unassigned) , please?
5.75

* * *

TEST_DESCRIPTION: Plasma protein binding rate test, cynomolgus monkey (equilibrium dialysis)
Format: in vitro ADME
TEST_CONTEXT: 37° C., read-out: Plasma protein binding rate (%) in cynomolgus monkeys (converted)
QUANTITY_MEASURED: fraction unbound at 4 h

{"MOLECULE": "CCC(=O)NC1CCCc2c(-c3ccc4c(c3)OCC(=O)N4C)cncc21 (single isomer, unassigned) [Compound 011]", "fraction unbound at 4 h": 0.245}

(A) CCC(=O)NC1CCCc2c(-c3cc(F)c4c(c3)OCC(=O)N4C)cncc21 (single isomer, unassigned) [Compound 031]
(B) CCC(=O)NC1CCOc2c(-c3cc4ccc(=O)n(C)c4s3)cncc21 (single isomer, unassigned) [Compound 045]
Between A and B , which one has the lower reported fraction unbound at 4 h value? Refer to your chosen entry by its label in the reply.
A
